The reported numbers originate from patent US12486280B2.

# target-of-assay: CDK4 (Homo sapiens (Human), UniProt P11802)
# Sequence (P11802 whole entry): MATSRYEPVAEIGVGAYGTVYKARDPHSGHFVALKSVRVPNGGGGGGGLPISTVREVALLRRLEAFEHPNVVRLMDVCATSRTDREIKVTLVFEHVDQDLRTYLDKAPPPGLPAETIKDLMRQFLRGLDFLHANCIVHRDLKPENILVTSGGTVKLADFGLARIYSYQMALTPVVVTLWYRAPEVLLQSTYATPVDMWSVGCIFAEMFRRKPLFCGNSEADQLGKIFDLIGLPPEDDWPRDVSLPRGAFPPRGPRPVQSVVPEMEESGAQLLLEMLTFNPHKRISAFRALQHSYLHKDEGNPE
# Sequence (P24385 whole entry partner): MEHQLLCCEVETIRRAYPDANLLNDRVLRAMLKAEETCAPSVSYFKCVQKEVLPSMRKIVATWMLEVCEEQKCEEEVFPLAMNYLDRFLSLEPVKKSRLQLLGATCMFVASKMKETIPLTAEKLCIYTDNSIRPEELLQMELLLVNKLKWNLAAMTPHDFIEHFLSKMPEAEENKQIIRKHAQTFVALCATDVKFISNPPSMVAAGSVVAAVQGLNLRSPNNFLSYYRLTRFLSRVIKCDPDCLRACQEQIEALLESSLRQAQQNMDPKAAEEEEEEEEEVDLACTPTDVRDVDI
attribute-measured: Ki (nM)

# molecule, Ki, nM
data = [
    ("Cc1nc2c(F)cc(-c3nc(Nc4ccc(CN5CCOC(C)(CCN(C)C)C5)cn4)ncc3F)cc2n1C(C)C (stereo not drawn)", 1.16),
]

[a] Cc1nc2c(F)cc(-c3nc(Nc4ccc(CN5CCO[C@@](C)(C[C@@H](C)N(C)C)C5)cn4)ncc3F)cc2n1C(C)C [Compound A28, methanesulfonate]
[b] Cc1nc2c(F)cc(-c3nc(Nc4ccc(CN5CCO[C@](C)(CCNC(C)(C)C)C5)cn4)ncc3F)cc2n1C(C)C
Form: Entry with minimum Ki (choose one): a / b # answer = label of selected item
a
(a: 0.46 nM, b: 1 nM)
